biological target: T1, human MS4A4A ECL1 peptide (amino acid residues 86-98) (human); experiment: ELISA, hybridoma supernatant
T1 construct: synthetic peptide
T1 peptide: CMASNTYGSNPIS
measuredMetric: binding result

anti-MS4A4A antibody 4A-2 (antibody, V domains shown, murine hybridoma antibody) VH: QIQLVQSGPELKKPGETVKISCKASGYTFVDYEMNWVKQAPGKGLEWLGWINTYTGEPTYADDFQGRFAFSLVTSVSTAYLQINNLKHEDMATYLCTRNYYYGNGDVMDYWGQGTSVTVSS VL: QIVLTQSPAIMSASPGEKVTITCSASSSVSYIHWFQQKPGTSPKLWIYSTSNLASGVPARFSGSGSGTSYSLTISRMEAEDAATYYCQQRTGFPLTFGGGTQLEIK; no binding
anti-MS4A4A antibody 4A-17 (antibody, V domains shown, murine hybridoma antibody) VH: QVQLQQSAAELMKPGASVKLSCKATGYTFTGYWIEWLKQRPGHGLEWIGEILPGIGNTKYSEKFKGKATFTADTSSNTAYMQLSSLTTEDSAIYYCARSLLRAMDYWGQGTSVTVSS VL: QIVLTQSPAIMSASPGEKVTMTCSAISSISYMHWYQLKPGTSPKRWIYDTSKLASGVPARFSGSGSGTSYSLTISSMEAEDAATYYCHQRSSYPYTFGGGTKLEIK; no binding
